Taken from ChEMBL document CHEMBL1155914.

studySystem: Acetylcholinesterase (Electrophorus electricus)
Sequence (O42275 whole entry): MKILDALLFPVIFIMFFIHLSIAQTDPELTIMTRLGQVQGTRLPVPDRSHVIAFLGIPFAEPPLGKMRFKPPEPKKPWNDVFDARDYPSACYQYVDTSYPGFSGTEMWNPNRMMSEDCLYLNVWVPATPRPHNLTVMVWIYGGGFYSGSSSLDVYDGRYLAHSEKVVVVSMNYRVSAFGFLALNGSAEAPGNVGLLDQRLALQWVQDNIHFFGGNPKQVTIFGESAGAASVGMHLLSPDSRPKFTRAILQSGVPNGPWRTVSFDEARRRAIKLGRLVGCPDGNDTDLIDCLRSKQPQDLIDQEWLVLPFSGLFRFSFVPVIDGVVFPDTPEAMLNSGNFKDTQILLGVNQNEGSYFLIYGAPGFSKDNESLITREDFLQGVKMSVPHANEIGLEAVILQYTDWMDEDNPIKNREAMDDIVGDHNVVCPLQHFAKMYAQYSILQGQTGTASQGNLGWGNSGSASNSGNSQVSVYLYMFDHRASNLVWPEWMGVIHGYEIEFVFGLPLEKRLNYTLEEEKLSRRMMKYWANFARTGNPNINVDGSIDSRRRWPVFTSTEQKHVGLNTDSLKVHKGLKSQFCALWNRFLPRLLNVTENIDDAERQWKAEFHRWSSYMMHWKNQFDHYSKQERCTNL
Readings of pIC50 for the listed compounds
# log scale: pIC50 equals minus log10 of the concentration in mol/L

Sample records with pIC50:
compound	metric	valueMeasured
CC1(C)CC(=O)C2=C(C1)Nc1nc3c(c(N)c1C2c1ccccc1)CCCC3 (stereo not drawn)	pIC50	6.49
CC1(C)CC(=O)C2=C(C1)Oc1nc3c(c(N)c1C2c1ccccc1)CCCC3 (stereo not drawn)	pIC50	4.31
COc1ccc(C2C3=C(CC(C)(C)CC3=O)Oc3nc4c(c(N)c32)CCCC4)cc1 (stereo not drawn)	pIC50	5.39
CCOC(=O)C1=C(C)Oc2nc3c(c(N)c2C1c1ccc(OC)cc1)CCCC3 (stereo not drawn)	pIC50	6.06
Cc1ccc(C2C3=C(CC(C)(C)CC3=O)Nc3nc4c(c(N)c32)CCCC4)cc1 (stereo not drawn)	pIC50	6.64

For the compound Cc1ccc(C2C3=C(CC(C)(C)CC3=O)Oc3nc4c(c(N)c32)CCCC4)cc1 (stereo not drawn) , the measured pIC50 on Acetylcholinesterase (Electrophorus electricus) was 4.28

For the compound `CCOC(=O)c1c(C)nc2nc3c(c(N)c2c1-c1ccccc1)CCCC3` , the measured pIC50 on Acetylcholinesterase (Electrophorus electricus) was 6.09

For the compound CC1(C)CC(=O)C2=C(C1)Nc1nc3c(c(N)c1C2c1ccc(F)cc1)CCCC3 (stereo not drawn) , the measured pIC50 on Acetylcholinesterase (Electrophorus electricus) was 6.27

For the compound COc1ccc(C2C3=C(CC(C)(C)CC3=O)Nc3nc4c(c(N)c32)CCCC4)cc1 (stereo not drawn) , the measured pIC50 on Acetylcholinesterase (Electrophorus electricus) was 6.66

For the compound CC1(C)CC(=O)C2=C(C1)Nc1nc3c(c(N)c1C2c1ccncc1)CCCC3 (stereo not drawn) , the measured pIC50 on Acetylcholinesterase (Electrophorus electricus) was 6.22

For the compound CC1(C)CC(=O)C2=C(C1)Oc1nc3c(c(N)c1C2c1ccc(F)cc1)CCCC3 (stereo not drawn) , the measured pIC50 on Acetylcholinesterase (Electrophorus electricus) was 4.15

For the compound CCOC(=O)C1=C(C)Oc2nc3c(c(N)c2C1c1ccncc1)CCCC3 (stereo not drawn) , the measured pIC50 on Acetylcholinesterase (Electrophorus electricus) was 5.52

For the compound `CCOC(=O)c1c(C)nc2nc3c(c(N)c2c1-c1ccncc1)CCCC3` , the measured pIC50 on Acetylcholinesterase (Electrophorus electricus) was 5.85
